test system: CYP2A6; test: Enzyme kinetic study of probe substrate in dog liver microsomes; format: in vitro ADME; conditions: pH 7.4, probe coumarin (hydroxylation), 15 min, 0.2 mg/mL, n = 3, read-out: Km (Michaelis–Menten constant)
measured endpoint: Km at 15 min (µM)
Give just the number in µM; leave the unit off.

Problem: Any idea what Km at 15 min was measured for O=c1ccc2ccccc2o1 ?
Result: 0.41
